All figures here come from ChEMBL document CHEMBL4371072.

Experiment: Clearance in C57B1/6 mouse at 2 mg/kg, iv by LC-MS/MS analysis
Format: ADME, organism-based
Conditions: in vivo
Observed property: clearance (L/h/kg)
Numeric answer only, unit L/h/kg assumed.

Consider the molecule shown here: N#Cc1c(C(F)(F)F)cc(Nc2ccc(OC(F)(F)F)cc2)n2c1nc1ccccc12 What is its recorded clearance?
0.0582

====

Test: Metabolic stability in Balb/c mouse liver microsomes assessed as parent compound remaining at 0.1 uM after 30 mins in presence of NADPH by LC-MS/MS analysis
Settings: liver microsomes
Readings of remaining at 0.5 h, 0.1 µM for the listed compounds
The answer is to be given in %; state only the numeric part.

What does the record list as remaining at 0.5 h, 0.1 µM for N#Cc1c(C(F)(F)F)cc(NCc2ccccc2F)n2c1nc1cc(Cl)c(Cl)cc12 ?
84

Continuing:
Item under review: N#Cc1c(C(F)(F)F)cc(NCc2ccc(OC(F)(F)F)cc2)n2c1nc1cc(Cl)c(Cl)cc12 . Reported remaining at 0.5 h, 0.1 µM?
82

Any idea what its remaining at 0.5 h, 0.1 µM is? The compound is N#Cc1c(C(F)(F)F)cc(NCc2ccccn2)n2c1nc1cc(Cl)c(Cl)cc12
31

May I ask what remaining at 0.5 h, 0.1 µM has been recorded for N#Cc1c(C(F)(F)F)cc(NCc2ccc(F)cc2)n2c1nc1cc(Cl)c(Cl)cc12 ?
72

Param item = N#Cc1c(C(F)(F)F)cc(NCc2ccco2)n2c1nc1cc(Cl)c(Cl)cc12 ; retrieve measured remaining at 0.5 h, 0.1 µM.
66

====

Experiment: Metabolic stability in human liver microsomes assessed as parent compound remaining at 0.1 uM after 30 mins in presence of NADPH by LC-MS/MS analysis
Details: microsomes
Each record here notes measured remaining at 0.5 h, 0.1 µM.
Numbers only; they are read as %.

Return reported remaining at 0.5 h, 0.1 µM; argument: Cc1ccc(CNc2cc(C(F)(F)F)c(C#N)c3nc4cc(Cl)c(Cl)cc4n23)cc1
91

# ---- query compound ----
Record request: remaining at 0.5 h, 0.1 µM value, item N#Cc1c(C(F)(F)F)cc(NCc2cccc(F)c2)n2c1nc1cc(Cl)c(Cl)cc12
100

====

Experiment: Tmax in C57B1/6 mouse at 20 mg/kg, po by LC-MS/MS analysis
Format: ADME, organism-based
Details: in vivo
Observed property: Tmax (h)
Respond with the bare value in h.

// lookup Tmax for N#Cc1c(C(F)(F)F)cc(Nc2ccc(OC(F)(F)F)cc2)n2c1nc1ccccc12
5

====

Experiment: Half life in C57B1/6 mouse at 20 mg/kg, po by LC-MS/MS analysis
Type: ADME, organism-based
Settings: in vivo
Observed property: half-life
Write your answer as a measured quantity: the number, then the unit.

half-life for N#Cc1c(C(F)(F)F)cc(Nc2ccc(OC(F)(F)F)cc2)n2c1nc1ccccc12 ?
7.86 h

====

Experiment: AUC (0 to infinity) in C57B1/6 mouse at 20 mg/kg, po by LC-MS/MS analysis
Assay type: ADME, organism-based
Set-up: dose 20 mg/kg, time infinity, route oral
Conditions: in vivo
Observed property: AUC

I am curious: what AUC value has been reported for N#Cc1c(C(F)(F)F)cc(Nc2ccc(OC(F)(F)F)cc2)n2c1nc1ccccc12 ?
19.4 µM·h

====

Assay: Resistance index, ratio of IC50 for chloroquine-resistant asexual blood stage of Plasmodium falciparum K1 infected in human RBC to IC50 for chloroquine-sensitive asexual blood stage of Plasmodium falciparum NF54 infected in human RBC
Assay type: functional
Observed property: Ratio IC50

Worked set:
Ratio IC50 for N#Cc1c(C(F)(F)F)cc(Nc2ccc(OC(F)(F)F)cc2)n2c1nc1ccccc12 ?
0.88

Form field: reported Ratio IC50 of N#Cc1c(C(F)(F)F)cc(NCc2ccc(F)cc2)n2c1nc1ccccc12
0.7

Give its Ratio IC50 value. Item: N#Cc1c(C(F)(F)F)cc(NCc2ccc(OC(F)(F)F)cc2)n2c1nc1ccccc12
0.91

Fill blank: measured Ratio IC50 of the compound N#Cc1c(C(F)(F)F)cc(NCc2ccco2)n2c1nc1cc(Cl)c(Cl)cc12 is ____.
0.52

Next:
I would be grateful if you could share the reported Ratio IC50 for N#Cc1c(C(F)(F)F)cc(NCc2ccccn2)n2c1nc1ccccc12 .
1.41

What value of Ratio IC50 has been recorded for this entry: N#Cc1c(C(F)(F)F)cc(NS(=O)(=O)c2ccc(OC(F)(F)F)cc2)n2c1nc1cc(Cl)c(Cl)cc12
0.87
